// provenance: patent US20220002395A1

Overview of recorded Kd for various binders
Biological target: T1, Plasmodium falciparum histidine-rich protein II (HRP-II) (Plasmodium falciparum, UniProt P05227 22-332)
T1 construct: Coating antigen of all ELISAs; also called HRP-II protein; MA-HRPII Ag protein
T1 sequence (looked up): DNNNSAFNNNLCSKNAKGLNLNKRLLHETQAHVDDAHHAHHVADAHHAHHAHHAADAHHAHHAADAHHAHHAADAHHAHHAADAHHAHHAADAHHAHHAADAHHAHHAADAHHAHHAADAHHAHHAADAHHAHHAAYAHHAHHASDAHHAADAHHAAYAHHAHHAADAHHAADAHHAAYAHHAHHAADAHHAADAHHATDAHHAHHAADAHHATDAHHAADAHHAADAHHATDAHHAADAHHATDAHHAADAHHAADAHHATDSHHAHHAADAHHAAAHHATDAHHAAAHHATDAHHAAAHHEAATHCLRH
Assay: indirect ELISA, four antigen coating concentrations;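 note: optical density read across an antibody dilution series at each antigen coating level, curves plotted on log scale, KD derived as reciprocal of the averaged constant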
Please respond with the number in nM and leave the unit unwritten.

Kd lookup needed for Mutation 1-20 (antibody, mouse IgG2b, kappa, V domains shown, Mutation 1 as framework) VH: EVQLQQSGPEVVKPGASVKISCKASGSTITDYYMNWVKQSHGKGLEWIGDVNPIQGGTAYNQKFRDKATLTVDKSSNTAYMELRSLTSEDSALYYCTKGAEDYWGQGTTLTVSS VL: DVVLTQTPLSLSVTIGQPASISCKSSQSIIYSQGKIYLNWFQQRPGQSPKRLMYQLSKLDPGIPDRFSGSGSETDFTLKISRVEAEDLGVYYCLQGTYYPQTFGGGTKLEIKR , thanks.
0.251
